- System: 313798-341-R-J2-PDC spheroids, viability;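 note: spheroids exposed to compounds for seven days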
- methodSummary: Anticancer human tumor 313798-341-R-J2-PDC patient-derived cervical squamous cell carcinoma cell line growth inhibition [PI3K]
- studyConditions: curve of first compound; second compound 1 µM; spheroids with HUVEC and MSC
pIC50: −log10 of the molar value.
readoutType: pIC50

Example compounds with recorded pIC50:
compound	reportedValue
Cn1cnc2c(F)c(Nc3ccc(Br)cc3Cl)c(C(=O)NOCCO)cc21 + CC(Nc1ccc2c(c1)OCCn1cc(N3C(=O)OCC3C(F)F)nc1-2)C(N)=O	> 8.02
C[C@@H](NC(=O)c1ncnc(N)c1Cl)c1ncc(C(=O)Nc2cc(C(F)(F)F)c(Cl)cn2)s1 + COc1c(OCCCN2CCOCC2)ccc2c3n(c(=NC(=O)c4cnc(N)nc4)nc12)CCN3	> 7.50

According to the records, this compound CNC(=O)c1ccc(N2C(=S)N(c3ccc(C#N)c(C(F)(F)F)c3)C(=O)C2(C)C)cc1F + CC(Nc1ncnc2nc[nH]c12)c1cc2cccc(Cl)c2c(=O)n1-c1ccccc1 displays pIC50 of < 5.00
